All figures here come from patent US5763464A.

I'd be grateful if you could share measured Ki for these entries.
- Subject of test: HIV-1 protease (wild-type, WT) (Human immunodeficiency virus type 1 group M subtype B, UniProt P04585)
- Construct: purified HIV-1 protease (wild-type, WT)
- Measurement protocol: biochemical
- Protocol: The inhibition constants (Ki) for the compounds of the above examples were determined using purified HIV-1 protease (wild-type, WT) (Tables I, II and III). Ki is an inhibition constant of a given compound as derived by enzyme kinetics. A low Ki represents a high affinity of the compound for the enzyme, i.e., tight binding or low dissociation. […]
Numbers only, in nM.

Example entries begin here.
{"Molecule smiles": "O=C(Nc1ccccc1C(=O)N[C@@H](Cc1ccccc1)C[C@H](O)[C@H](Cc1ccccc1)NC(=O)O[C@H]1CCOC1)OCc1ccccn1", "Units label": "nM", "Ki": 0.042}
{"Molecule smiles": "O=C(N[C@@H](Cc1ccccc1)C[C@H](O)[C@H](Cc1ccccc1)NC(=O)O[C@H]1CCOC1)O[C@H]1CCOC1", "Units label": "nM", "Ki": 1.68}

Now examine the next entry.
Quickly give me recorded Ki for "Cc1c(O)cccc1C(=O)N[C@@H](Cc1ccccc1)[C@H](O)[C@H](O)[C@H](Cc1ccccc1)NC(=O)O[C@H]1CCOC1"
2
